Test system: Staphylococcus aureus
Assay: Antibacterial activity against Staphylococcus aureus MTCC 96 assessed as growth inhibition after 24 hr by agar streak dilution method
Type: functional
Settings: MTCC 96, 24 h
Recorded measurements of MIC, one per entry

MOLECULE: CC1CC(C)CN(c2nc(-c3ccc(NCC(=O)Nc4ccc(C#N)cc4)cc3)nc(N3CC(C)CC(C)C3)n2)C1 (centres undefined)
MIC, µg/mL: 12.5
--
MOLECULE: CC1CC(C)CN(c2nc(-c3ccc(NCC(=O)Nc4ccc([N+](=O)[O-])cc4)cc3)nc(N3CC(C)CC(C)C3)n2)C1 (centres undefined)
MIC, µg/mL: 12.5
--
MOLECULE: Cc1ccc(NC(=O)CNc2ccc(-c3nc(N4CC(C)CC(C)C4)nc(N4CC(C)CC(C)C4)n3)cc2)cc1 (centres undefined)
MIC, µg/mL: 50
--
MOLECULE: CC1CC(C)CN(c2nc(-c3ccc(NCC(=O)Nc4nc5ccc(Cl)cc5s4)cc3)nc(N3CC(C)CC(C)C3)n2)C1 (centres undefined)
MIC, µg/mL: 6.25
